The values you see were collected from patent US20200024330A1.

Answer each item with its documented Fold IC50 increase relative to wild-type.
Target: HIV-1 JR-CSF Env P313A (HIV-1 JR-CSF) (UniProt P20871)
Test: cell-based or functional assay
Write down the numeric answer in fold and omit the unit.

Reported Fold IC50 increase relative to wild-type of PGT-135 (antibody, V domains shown) VH: QLQMQESGPGLVKPSETLSLSCTVSGDSIRGGEWGDKDYHWGWVRHSAGKGLEWIGSIHWRGTTHYKESLRRRVSMSIDTSRNWFSLRLASVTAADTAVYFCARHRHHDVFMLVPIAGWFDVWGPGVQVTVSS VL: EIVMTQSPDTLSVSPGETVTLSCRASQNINKNLAWYQYKPGQSPRLVIFETYSKIAAFPARFVASGSGTEFTLTINNMQSEDVAVYYCQQYEEWPRTFGQGTKVDIK : 0.5

GET /value?item= PGT-123 (antibody, V domains shown) VH: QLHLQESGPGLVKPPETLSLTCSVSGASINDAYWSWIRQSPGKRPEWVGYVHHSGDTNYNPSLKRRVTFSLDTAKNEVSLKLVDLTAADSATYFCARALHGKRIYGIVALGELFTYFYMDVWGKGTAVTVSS VL: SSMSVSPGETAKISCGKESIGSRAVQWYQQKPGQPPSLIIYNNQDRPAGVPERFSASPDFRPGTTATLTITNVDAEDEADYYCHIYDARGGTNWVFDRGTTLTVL &field=Fold IC50 increase relative to wild-type returns 0.2

response.value for PGT-125 (antibody, V domains shown) VH: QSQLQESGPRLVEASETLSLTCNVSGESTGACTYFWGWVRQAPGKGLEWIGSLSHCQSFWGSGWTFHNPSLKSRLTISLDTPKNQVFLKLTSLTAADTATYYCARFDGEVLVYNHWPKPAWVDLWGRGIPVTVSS VL: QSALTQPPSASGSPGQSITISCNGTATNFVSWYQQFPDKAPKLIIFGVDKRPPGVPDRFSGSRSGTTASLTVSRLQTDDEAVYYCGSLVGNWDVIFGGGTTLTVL (field: Fold IC50 increase relative to wild-type) = 0.3
